B1: VH:VL chains; a variant is named by its letters at X, in order (parent)
chain 1: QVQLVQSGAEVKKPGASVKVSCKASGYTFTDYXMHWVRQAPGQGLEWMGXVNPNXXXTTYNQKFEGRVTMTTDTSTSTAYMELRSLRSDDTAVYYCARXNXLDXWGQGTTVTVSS
chain 2: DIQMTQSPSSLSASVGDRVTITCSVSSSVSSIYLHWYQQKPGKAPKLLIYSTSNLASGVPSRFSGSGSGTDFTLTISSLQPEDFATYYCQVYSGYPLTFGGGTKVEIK

Variants of: B1
assay_explanation: yeast display scFab, FACS + sequencing
measured_property: non-specific binding call

Worked examples follow.
YARADSLD	no binding
YKGRAAGS	binds
FAAETDVF	no binding
VKRATVLA	binds
SARGGYWY	binds

[Q] // non-specific binding call lookup, key: SRARGAGA
[A] binds
